Ref: patent US8389523B2

System: Echinochloa oryzicola Vasing
assay-overview: Herbicidal effects in paddy field soil treatment (Test Example 1)
Assay type: in vivo
Set-up: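 grade 0 to 5 of growth suppression where 5 is 90% or more and 0 below 10%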
experimental-parameters: paddy field soil treatment; 1000 g of the active ingredient per hectare; wettable powder added dropwise on water surface; 21st day after treatment
Provide the recorded Herbicidal effects index, Echinochloa oryzicola Vasing for the entries that follow.
One number for each entry.

Can you give me Herbicidal effects index, Echinochloa oryzicola Vasing for all of these, one by one?
1. O=C1CCCC(O)=C1C(=O)c1nc2cc(F)ccc2n(-c2ccccc2)c1=O
2. O=C1CCCC(O)=C1C(=O)c1nc2cccnc2n(-c2ccc(C3CC3)cc2)c1=O
3. C#CCn1c(=O)c(C(=O)C2=C(O)CCCC2=O)nc2cccnc21

## Result
1. 5
2. 5
3. 4

Value sought for every listed compound: Herbicidal effects index, Echinochloa oryzicola Vasing.
1. CCOc1cc(-n2c(=O)c(C(=O)C3=C(O)CCCC3=O)nc3ccccc32)ccc1OC
2. COc1ccc(-n2c(=O)c(C(=O)C3=C(O)CCCC3=O)nc3c(Cl)cccc32)cn1
3. Cn1ccc2cc(-n3c(=O)c(C(=O)C4=C(O)CCCC4=O)nc4ccccc43)ccc21
4. O=C1CCCC(O)=C1C(=O)c1nc2ccccc2n(-c2cnccn2)c1=O
5. N#CCCOCn1c(=O)c(C(=O)C2=C(O)CCCC2=O)nc2ccccc21
6. O=C1CCCC(O)=C1C(=O)c1nc2cccnc2n(-c2ccccc2C(F)(F)F)c1=O

## Result
4
5
5
5
4
5
